system: NCI-H460; assay: NCI tumour cell line growth inhibition, 48 h
Active and inactive are the calls of the source. Rule as the data show it: active = GI50 up to about 1.1 µM and inactive = higher.
parameter: GI50

Below, 3 compounds whose answers are already recorded.
compound	target-or-system	GI50
CN[C@H](C)[C@@H](OC)c1ccccc1	NCI-H460	> 100 µM (inactive)
CCC(O)CC1OC2(CCC1C)CC1OC(=O)/C=C\C(C)(O)C(O)C(C)C(O)C(OC3CC(OC)C(O)C(C)O3)C(O)C(C)(O)CCC/C=C/C3CC(C)COC3(O)CC(O2)C1C (stereo not drawn)	NCI-H460	6.62 µM (inactive)
C=Cc1ccc(C)[n+](C[Si](C)(C)O[Si](C)(C)C[n+]2cc(C=C)ccc2C)c1	NCI-H460	> 100 µM (inactive)

// below: GI50 requested for another compound
Tell me its GI50 given Nc1c(Cl)ncnc1NCCCCCCCCCCCCNc1ncnc(Cl)c1N as the entry. 1.9 µM (inactive)
